Answer each item with its documented protein stability index.
Experiment: protein stability index of a GFP-peptide fusion (GPS, HEK-293T) (PSI 1-6); higher = more stable;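 also: 24-mer peptide tiles fused after GFP, lentivirally expressed, FACS-sorted into six equal bins by GFP/DsRed ratio, decoded by Illumina sequencing, PSI is the read-weighted mean bin number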
Details: treatment: DMSO; c terminus: a fixed tail appended
Answer using only a numeral; do not append any unit.

stdin: Reported protein stability index, sequence VYMTEPIDEYCVQQLKEFDGKSLV [HSP90AB1] : ____
stdout: 3.06

stdin: Reported protein stability index, sequence SYSSCGDFHYCDREHVCRKDQRNP [RBMY1A1] : ____
stdout: 4.06

stdin: Reported protein stability index, sequence VRAWDLETGKLLWKVRYDTFIVSC [WDR88] : ____
stdout: 2.67

stdin: Reported protein stability index, sequence VFFFIFFVQDVLFVLQAIGIPGWG [SCAMP3] : ____
stdout: 3.44

stdin: Reported protein stability index, sequence MARPLVPSSQKALLLELKGLQEEP [CDC34] : ____
stdout: 4.06

stdin: Reported protein stability index, sequence ISGGFDRTVAIWDVAEGYRKLSLK [WDR88] : ____
stdout: 3.09

stdin: Reported protein stability index, sequence LLLEPGSLYILRGSARYDFSHEIL [ALKBH7] : ____
stdout: 2.58

----------
Assay: protein stability index of a GFP-peptide fusion (GPS, HEK-293T) (PSI 1-6); higher = more stable
Details: treatment: MLN4924 1 uM, 8 h; c terminus: a fixed tail appended
quantityKind: protein stability index
Answer using only a numeral; do not append any unit.

stdin: Reported protein stability index, sequence RLSNNQRYLFLDGDSHYEIEIVHI [ZFYVE21] : ____
stdout: 2.21

stdin: Reported protein stability index, sequence HIENGPFSLEQQLDDEDDDEEDCP [SRPK2] : ____
stdout: 5.46

stdin: Reported protein stability index, sequence RSKESKDCSGLVLLCLFFGIPWEA [PCDHGA10] : ____
stdout: 2.48

stdin: Reported protein stability index, sequence RWPFDHNDFGVFLCKLFPFLQKSS [EDNRA] : ____
stdout: 2.05

stdin: Reported protein stability index, sequence LVHTQEPGEWLELLLEPGSLYILR [ALKBH7] : ____
stdout: 2.23

stdin: Reported protein stability index, sequence EIELQAQHNLRYSLENTLTESEAR [KRT33B] : ____
stdout: 4.48

stdin: Reported protein stability index, sequence KPDYEYLRTLFTDLFEKKGYTFDY [CSNK1G1] : ____
stdout: 2.31

stdin: Reported protein stability index, sequence MELQKGKGAAAAAAASGAAGGGGG [INTS3] : ____
stdout: 5.26

stdin: Reported protein stability index, sequence PTPSTDAEYPANGSGADRIYDLNI [NCK2] : ____
stdout: 4.71

stdin: Reported protein stability index, sequence LQPLSKPLSSQPQAIVTEDKTDIS [MLH1] : ____
stdout: 5.19

stdin: Reported protein stability index, sequence EQLMYIKEDLIIPHHHSFYDFIVT [FAM50A] : ____
stdout: 2.27

stdin: Reported protein stability index, sequence SCQSFISWTGDGWEFKLSDPDEVA [ETS1] : ____
stdout: 3.06

stdin: Reported protein stability index, sequence DQSDEGSSSQKEESPSTLQVLPDS [MAGEA10] : ____
stdout: 5.56

stdin: Reported protein stability index, sequence GGCYFGPDVTQQLLQKYNMQFLIR [PPEF2] : ____
stdout: 2.2

stdin: Reported protein stability index, sequence GATCMFVASKMKETIPLTAEKLCI [CCND1] : ____
stdout: 1.99

stdin: Reported protein stability index, sequence SSSVSISHSASATGNVCIEEIDVD [LMNB1] : ____
stdout: 5.4

stdin: Reported protein stability index, sequence ALKDNKSPLHLVQMPPVIVETARS [PI4K2A] : ____
stdout: 3.82

stdin: Reported protein stability index, sequence AATQALPQDSGTAAWKGRVLLPET [C22orf31] : ____
stdout: 4.1

stdin: Reported protein stability index, sequence SCNTWPSMPSYSSCTVTTVQPMDR [TBX5] : ____
stdout: 3.09

stdin: Reported protein stability index, sequence QSYPSQDKPLPPPPPGSLSRTQEP [SOAT2] : ____
stdout: 5.08

stdin: Reported protein stability index, sequence RNVTGTPLTGDKDDEEVDTHFASQ [ADAMTSL2] : ____
stdout: 5.32

stdin: Reported protein stability index, sequence EINPPPHTMEEEEDDDWGEDTTEE [EIF5] : ____
stdout: 5.34

stdin: Reported protein stability index, sequence PQIPVDRGSETTYESSADIAGDEG [TAF7L] : ____
stdout: 5.48

stdin: Reported protein stability index, sequence AEGDSWEEEGFGSSSPVKSPAAPY [WEE1] : ____
stdout: 5.19

stdin: Reported protein stability index, sequence RSSEFYRVTTEQYQKAAEEVEAKF [CHCHD3] : ____
stdout: 4.78

stdin: Reported protein stability index, sequence ATNDDPWGPSGQLMGEIAKATFMY [CLINT1] : ____
stdout: 2.32

stdin: Reported protein stability index, sequence CQQEQLFQTRQEMTSMSAELKMRA [LRRC45] : ____
stdout: 3.1
